assay: qHTS assay to identify small molecule antagonists of the retinoic acid receptor (RAR) signaling pathway (AID 1159552; also: nearly all actives have a fitted effect of over 50% in size); conditions: C3RL4 RARE luciferase reporter, retinol-stimulated, 6 h; series mostly up to 92.4 µM
Inconclusive results are not listed. The source made the active and inactive calls. Calls follow the shape of the dose curve; as a rule, active = well fitted inhibition curve with a large enough effect in the repeat runs; inconclusive = weak or mixed curves, or effect the other way; inactive = no such curve, though single readings can be large or run the other way.
Pick one and only one: True = active, False = inactive

Past entries and their recorded results:
[O-][n+]1ccccc1SSc1cccc[n+]1[O-]; True
Cc1cc(O)c(Cl)c(C)c1Cl; False
Oc1ccc(C2(c3ccc(O)cc3)CC3CC2C2CCCC32)cc1 (stereo not given); True

Tell me the recorded outcome of this test for Cc1cc(CCN2CCN(c3nsc4ccccc34)CC2)cc2c1NC(=O)CC2(C)C .
True

Could you kindly confirm the outcome this assay logged for NNc1nc(-c2ccccc2)cs1 ?
False

Could you kindly confirm the outcome this assay logged for Cc1c(C)c2c(c(C)c1OC(=O)CCC(=O)O)CC[C@@](C)(CCC[C@H](C)CCC[C@H](C)CCCC(C)C)O2 ?
False

Hey, what did the test say about O=c1cccccc1O ?
False

Hi, do you know how CC/C(=C(\c1ccc(O)cc1)c1ccc(OCCN(C)C)cc1)c1ccccc1 came out in this test?
True

Which outcome was assigned to CNc1ccc(O)cc1 in this test?
True

====

assay: qHTS RealTime-Glo MT Cell Viability Assay in HepG2 cells - 16 hour (AID 1224885); conditions: RealTime-Glo luminescence; series mostly up to 76.8 µM; also: nearly all actives have a fitted effect of over 50% in size; also: potency is read from the fitted curve at half-maximal effect
Inconclusive results are not listed. Active and inactive are the calls of the source. Calls follow the shape of the dose curve; as a rule, active = well fitted cell-killing curve with a large enough effect in the repeat runs; inconclusive = weak or mixed curves; inactive = flat fitted curve, though single readings scatter.
MEASURED PROPERTY: Potency

Solved cases (5 shown):
CCCC(C)c1ccccc1O (configuration not stated); inactive
CCCCN1CCCC[C@H]1C(=O)Nc1c(C)cccc1C; inactive
COC(=O)C1=C(C)NC(C)=C(C(=O)OCC(C)C)C1c1ccccc1[N+](=O)[O-] (configuration not stated); 43.6 µM (active)
CC(C)(C)c1ccc(C(=O)CCCN2CCC(OC(c3ccccc3)c3ccccc3)CC2)cc1; 21.3 µM (active)
CC(C)n1nc(-c2cc3cc(O)ccc3[nH]2)c2c(N)ncnc21; inactive

Respectfully, I request Potency for each entry included below.
1. Oc1c(Cl)cc(Cl)c2cccnc12
2. Cc1cc(O)c2ccccc2c1O
3. CCC(CN)=C(c1ccccc1)c1ccccc1
4. CC[C@H](c1ccc(O)cc1)[C@@H](CC)c1ccc(O)cc1
5. O=c1c(-c2ccccc2)c1-c1ccccc1
6. [Cl][Bi]([Cl])([c]1ccccc1)([c]1ccccc1)[c]1ccccc1

1: inactive; 2: 13.4 µM (active); 3: inactive; 4: inactive; 5: 19 µM (active); 6: 7.71 µM (active)

====

assay: qHTS assay to identify small molecule antagonists of the peroxisome proliferator-activated receptor gamma (PPARg) signaling pathway - cell viability counter screen (AID 743194); conditions: PPARg-bla HEK293H viability, CellTiter-Glo luminescence, 17 h, co-treated with 50 nM rosiglitazone; series mostly up to 62.6 µM; also: nearly all actives have a fitted effect of over 55% in size
Inconclusive results are not listed. Active and inactive are the calls of the source. The call rests on the fitted dose curve; in most records, active means well fitted cell-killing curve with a large enough effect in the repeat runs; inconclusive means weak or mixed curves, or effect the other way; inactive means no such curve, though single readings can be large or run the other way.
Write down the outcome that applies. Available outcomes: class 1 for active, class 0 for inactive

CN(C)[C@@H]1C(=O)C(C(N)=O)=C(O)[C@@]2(O)C(=O)C3=C(O)c4c(O)ccc(Cl)c4[C@@H](O)[C@H]3C[C@@H]12; class 0
OC1(c2ccc(Cl)c(C(F)(F)F)c2)CCN(CCCC(c2ccc(F)cc2)c2ccc(F)cc2)CC1; class 1
COc1ccc(CN2CCN(C(c3ccc(F)cc3)c3ccc(F)cc3)CC2)c(OC)c1OC; class 1
COC(=O)C1=C(C)NC(C)=C(C(=O)OCCc2ccc(N3CCN(C(c4ccccc4)c4ccccc4)CC3)cc2)C1c1cccc([N+](=O)[O-])c1 (stereo not drawn); class 0

Record lookup: outcome of this test for CC(=O)OCC(C)OC(C)=O (stereo not drawn) ?
class 0

Status in this test for COc1cc(-c2nc(NC(=O)c3cc4cc(C)cc(C)c4n3CC(=O)O)sc2CCC2CCCCC2)c(OC)cc1Cl ?
class 1

Hi, do you know how Nc1cc(C(F)(F)F)ccc1S came out in this test?
class 0

Record request — test call for [Cl][Bi]([Cl])([c]1ccccc1)([c]1ccccc1)[c]1ccccc1
class 1

Lab log entry: CCCCCCCCCCCC[N+](C)(C)CCCCCCCCCCCC — outcome as called in the assay?
class 1

Recorded test outcome, item CN(C)c1ccc(C2(c3ccc(N(C)C)cc3)OC(=O)c3cc(N(C)C)ccc32)cc1
class 0
